assay: Acute toxicity in SD rats (Example 16); format: in vivo; conditions: both sexes, rat, in vivo, 3 g/kg, single intravenous injection, read-out: rat MTD, injected
property-name: MTD at 14 d

Query string: Value lookup for MTD at 14 d; key = CSCCC(C(=O)[O-])N(CC(O)C(O)C(O)C(O)CO)C(=S)[S][Na].[Na+] (stereo not shown) [Composition D3]
Result string: > 3000 mg/kg

---

experiment: Solid stability of compositions 1-11 and compounds 1A-11A: main component content over time under different conditions (Example 37, Table 32); assay type: physicochemical; conditions: −25° C., 5 d
Measured main component content of individual entries
Provide only the numeric value, understood in %.

Before answering, review these 2 worked examples.
| compound | unit-annotation | main component content |
| --- | --- | --- |
| O=C([O-])C(CC1CCCCC1)N(CC(O)C(O)C(O)C(O)CO)C(=S)[S][Na].[Na+] (stereo not drawn) | % | 100.6 |
| O=C([O-])C(CO)N(CC(O)C(O)C(O)C(O)CO)C(=S)[S][K].[K+] (stereo not drawn) [Compound 10A] | % | 100.5 |

// moving on: another record for main component content
Query string: Value lookup for main component content; key = O=C([O-])C(CF)N(CC(O)C(O)C(O)C(O)CO)C(=S)[S][Na].[Na+] (stereo not drawn)
Result string: 100.2
